# Test system: T47D
# EXPERIMENT_NOTES: Microculture tetrazolium assay
# Format: cell-based
# CONDITIONS: Homo sapiens, read-out: IC50
Assign IC50 to each entry below.
// note: answer is a bare numeric in µM

Given CC(=O)C1CC2=C(C(=O)c3cc4ccccc4c(O)c3C2=O)C(OCCNC(=O)OC(C)(C)C)S1 (stereo not drawn) , state its recorded IC50.
7.1

Given `CCN(CC)C(=O)[C@H]1CC2=C(C(=O)c3cc4ccccc4c(O)c3C2=O)[C@H](O[C@H]2C[C@H](NC(=O)C(F)(F)F)[C@H](O)[C@H](C)O2)O1` , state its recorded IC50.
7.09

###

# Test system: T47D
# EXPERIMENT_NOTES: Microculture tetrazolium assay
# Type: cell-based
# CONDITIONS: Homo sapiens, read-out: IC50
Where a name gives a salt, the structure may show the parent alone.
Assign IC50 to each entry below.

Given `C[C@@H]1O[C@@H](O[C@@H]2O[C@@H](COc3ccccc3)CC3=C2C(=O)c2cc4ccccc4c(O)c2C3=O)C[C@H](NC(=O)C(F)(F)F)[C@@H]1O` , state its recorded IC50.
0.243 µM

Given CC(=O)OCC1(C2CC3=C(C(=O)c4cc5ccccc5c(O)c4C3=O)C(O[C@H]3C[C@H](NC(=O)C(F)(F)F)[C@H](O)[C@H](C)O3)O2)OCCCO1 (single isomer, unassigned) , state its recorded IC50.
18.1 µM

Given CC(=O)Oc1c2c(c(O)c3ccccc13)C(=O)C1=C(C2=O)C(O)OC(C(C)=O)C1 (stereo not drawn) , state its recorded IC50.
11.8 µM

Given CCOC(=O)C1CC2=C(CO1)C(=O)c1c(c(O)c3ccccc3c1OC(C)=O)C2=O (stereo not drawn) , state its recorded IC50.
> 100 µM

Given CC(=O)C1CC2=C(C(=O)c3cc4ccccc4c(O)c3C2=O)C(OC[C@H](O)CO)S1 (stereo partly drawn) , state its recorded IC50.
3.73 µM

Given C[C@@H]1O[C@@H](O[C@H]2O[C@H](c3ccccc3)CC3=C2C(=O)c2cc4ccccc4c(O)c2C3=O)C[C@H](N)[C@@H]1O [BCH-2012, hydrochloride] , state its recorded IC50.
0.954 µM

###

# Tested on: NSC Lung
# EXPERIMENT_NOTES: NCI assay, average per cancer type
# CONDITIONS: Homo sapiens, 48 h, read-out: Average LOG10 LC50
Assign CC50 to each entry below.
// unit must come after the numeric part

Given COC(=O)[C@@H]1CC2=C(C(=O)c3cc4ccccc4cc3C2=O)[C@@H](O[C@H]2C[C@H](NC(=O)C(F)(F)F)[C@H](O)[C@H](C)O2)O1 [BCH-671] , state its recorded CC50.
30.2 µM

Given COC(=O)[C@H]1CC2=C(C(=O)c3c(c(OC)c4ccccc4c3O)C2=O)[C@H](O[C@H]2C[C@H](NC(=O)C(F)(F)F)[C@H](O)[C@H](C)O2)O1 (mixture of isomers) [BCH-675] , state its recorded CC50.
56.2 µM

Given CCOC(=O)[C@@H]1CC2=C(C(=O)c3c(cc4ccccc4c3O)C2=O)[C@@H](O[C@H]2C[C@H](NC(=O)C(F)(F)F)[C@H](O)[C@H](C)O2)O1 [BCH-673] , state its recorded CC50.
21.9 µM

Given COC(=O)[C@@H]1CC2=C(C(=O)c3cc4ccccc4c(O)c3C2=O)[C@@H](O[C@H]2C[C@H](NC(=O)C(F)(F)F)[C@H](O)[C@H](C)O2)O1 [BCH-683] , state its recorded CC50.
28.2 µM

Given CCOC(=O)C1CC2=C(C(=O)c3c(c(O)c4ccccc4c3OC)C2=O)C(O[C@H]2C[C@H](NC(=O)C(F)(F)F)[C@H](O)[C@H](C)O2)O1 (mixture of isomers) [BCH-689] , state its recorded CC50.
41.7 µM

Given CCOC(=O)[C@@H]1CC2=C(C(=O)c3cc4ccccc4c(OC(C)=O)c3C2=O)[C@@H](O)O1 (mixture of isomers) [BCH-660] , state its recorded CC50.
19.5 µM

Given COc1cccc2c1C(=O)c1c(O)c3c(c(O)c1C2=O)C[C@@](O)(C(=O)CO)C[C@@H]3O[C@H]1C[C@H](N)[C@H](O)[C@H](C)O1 [ADR, reference compound] , state its recorded CC50.
9.77 µM

Given COc1cccc2c1C(=O)c1c(O)c3c(c(O)c1C2=O)C[C@@](O)(C(C)=O)C[C@@H]3O[C@H]1C[C@H](N)[C@H](O)[C@H](C)O1 [DNM, reference compound] , state its recorded CC50.
8.51 µM

Given COC(=O)[C@H]1CC2=C(C(=O)c3cc4ccccc4cc3C2=O)[C@H](O[C@H]2C[C@H](NC(=O)C(F)(F)F)[C@H](O)[C@H](C)O2)O1 [BCH-670] , state its recorded CC50.
24 µM

Given COC(=O)[C@@H]1CC2=C(C(=O)c3cc4ccccc4cc3C2=O)[C@H](O[C@H]2C[C@H](NC(=O)C(F)(F)F)[C@H](O)[C@H](C)O2)O1 [BCH-672] , state its recorded CC50.
27.5 µM

Given CCOC(=O)[C@@H]1CC2=C(C(=O)c3cc4ccccc4c(O)c3C2=O)[C@@H](O[C@H]2C[C@H](NC(=O)C(F)(F)F)[C@H](O)[C@H](C)O2)O1 [BCH-681] , state its recorded CC50.
22.9 µM

###

# System: SKVLB
# EXPERIMENT_NOTES: Microculture tetrazolium assay
# Assay type: cell-based
# CONDITIONS: IC50 ratio SKVLB/SKOV3
Assign VLB/OV3 to each entry below.
# respond with the number and nothing more

Given C[C@@H]1O[C@@H](O[C@@H]2O[C@@H](C(C)(F)F)CC3=C2C(=O)c2cc4ccccc4c(O)c2C3=O)C[C@H](O)[C@@H]1O (mixture of isomers) [BCH-1663] , state its recorded VLB/OV3.
1.16

Given C[C@@H]1O[C@@H](O[C@@H]2O[C@@H](C(=O)OC(C)(C)C)CC3=C2C(=O)c2cc4ccccc4c(O)c2C3=O)C[C@H](NC(=O)C(F)(F)F)[C@@H]1O [BCH-2850] , state its recorded VLB/OV3.
1.49

Given CO[C@H]1O[C@H](C(=O)CP(=O)(OC)OC)CC2=C1C(=O)c1cc3ccccc3c(O)c1C2=O (relative stereo) [BCH-1650] , state its recorded VLB/OV3.
1.12

Given CC(C)[C@@H]1Cc2c(O)c3c(c(O)c2[C@@H](O[C@H]2C[C@H](N)[C@H](O)[C@H](C)O2)O1)C(=O)c1ccccc1C3=O [BCH-2050] , state its recorded VLB/OV3.
0.95

Given C=CC[C@H]1CC2=C(C(=O)c3cc4ccccc4c(O)c3C2=O)[C@H](O[C@H]2C[C@H](NC(=O)C(F)(F)F)[C@H](O)[C@H](C)O2)O1 [BCH-1686] , state its recorded VLB/OV3.
2.60

Given CC(=O)C1CC2=C(C(=O)c3cc4ccccc4c(O)c3C2=O)C(OC[C@@H]2COC(C)(C)O2)O1 (stereo partly drawn) [BCH-1661] , state its recorded VLB/OV3.
0.94

###

# System: MATB/ADR
# EXPERIMENT_NOTES: Soft agar colony formation disk diffusion assay
# Type: cell-based, rat
# CONDITIONS: 100 μg/DISK
Criterion: zone of inhibition meeting or surpassing 200 Zone Units. Met: TRUE. Not met: FALSE.

Say whether COC(=O)[C@@H]1CC2=C(C(=O)c3c(c(OC)c4ccccc4c3O)C2=O)[C@@H](O[C@H]2C[C@H](NC(=O)C(F)(F)F)[C@H](O)[C@H](C)O2)O1 (mixture of isomers) shows zone of inhibition of 200 Zone Units or more.
TRUE

Say whether COC(=O)[C@H]1CC2=C(C(=O)c3c(cc4ccccc4c3O)C2=O)[C@H](O[C@H]2C[C@H](NC(=O)C(F)(F)F)[C@H](O)[C@H](C)O2)O1 (mixture of isomers) shows zone of inhibition of 200 Zone Units or more.
FALSE

Say whether CC(=O)Oc1c2c(c(O)c3ccccc13)C(=O)C1=C(CC(C(C)=O)OC1)C2=O (centres unmarked) shows zone of inhibition of 200 Zone Units or more.
FALSE

Say whether CCOC(=O)C1CC2=C(CO1)C(=O)c1c(c(O)c3ccccc3c1OC(C)=O)C2=O (centres unmarked) shows zone of inhibition of 200 Zone Units or more.
FALSE

Say whether COC(=O)[C@H]1CC2=C(C(=O)c3c(c(OC)c4ccccc4c3O)C2=O)[C@H](O[C@H]2C[C@H](NC(=O)C(F)(F)F)[C@H](O)[C@H](C)O2)O1 (mixture of isomers) shows zone of inhibition of 200 Zone Units or more.
FALSE

Say whether `CCOC(=O)[C@@H]1CC2=C(C(=O)c3cc4ccccc4c(O)c3C2=O)[C@@H](O[C@H]2C[C@H](NC(=O)C(F)(F)F)[C@H](O)[C@H](C)O2)O1` shows zone of inhibition of 200 Zone Units or more.
TRUE

Say whether CCOC(=O)[C@@H]1CC2=C(C(=O)c3cc4ccccc4c(OC(C)=O)c3C2=O)[C@@H](O)O1 (mixture of isomers) shows zone of inhibition of 200 Zone Units or more.
FALSE

Say whether CC(=O)Oc1c2c(c(O)c3ccccc13)C(=O)C1=C(C2=O)C(O)OC(C(C)=O)C1 (centres unmarked) shows zone of inhibition of 200 Zone Units or more.
TRUE

Say whether C=CC1CC2=C(C(=O)c3cc4ccccc4c(O)c3C2=O)C(OC)O1 (centres unmarked) shows zone of inhibition of 200 Zone Units or more.
FALSE

Say whether CCOC(=O)C1Cc2c(c(OC)c3c(c2OC)C(=O)c2ccccc2C3=O)CS1 (centres unmarked) shows zone of inhibition of 200 Zone Units or more.
FALSE

Say whether CCOC(=O)C1CC2=C(CO1)C(=O)c1c(cc3ccccc3c1O)C2=O (centres unmarked) shows zone of inhibition of 200 Zone Units or more.
FALSE

Say whether COCOCC(=O)C1CC2=C(CO1)C(=O)c1c(cc3ccccc3c1O)C2=O (centres unmarked) shows zone of inhibition of 200 Zone Units or more.
FALSE

Say whether `CCOC(=O)[C@H]1CC2=C(C(=O)c3cc4ccccc4c(O)c3C2=O)[C@H](O[C@H]2C[C@H](NC(=O)C(F)(F)F)[C@H](O)[C@H](C)O2)O1` shows zone of inhibition of 200 Zone Units or more.
TRUE

Say whether CCOC(=O)C1CC2=C(CO1)C(=O)c1cc3ccccc3c(O)c1C2=O (centres unmarked) shows zone of inhibition of 200 Zone Units or more.
FALSE
